Data provenance: paper PMC3093256

Entries annotated with measured IC50
System: KB (human mouth epidermoid carcinoma)
PROTOCOL_DETAILS: Cytotoxicity assay, KB cells
Type: cell-based
EXPERIMENTAL_SETUP: 72 h, 3 days incubation, by interpolation

IN: Hello, I am looking for reported IC50 with KB (human mouth epidermoid carcinoma) for CCCCCCCCCCCCCCCCCCCCn1c2ccccc2c2cc(C3NCCc4c3[nH]c3ccccc43)ccc21 (stereo not shown) . Could you help?
OUT: > 20 µg/mL

IN: Hello, I am looking for reported IC50 with KB (human mouth epidermoid carcinoma) for CCCCCCCCCCCCCCCCn1c2ccccc2c2cc(C3=NCCc4c3[nH]c3ccccc43)ccc21 . Could you help?
OUT: > 20 µg/mL

IN: Hello, I am looking for reported IC50 with KB (human mouth epidermoid carcinoma) for CCCCCCCCCCCCCCCCn1c2ccccc2c2cc(C3NCCc4c3[nH]c3ccccc43)ccc21 (stereo not shown) . Could you help?
OUT: > 20 µg/mL

IN: Hello, I am looking for reported IC50 with KB (human mouth epidermoid carcinoma) for CCCCCn1c2ccccc2c2cc(C3=NCCc4c3[nH]c3ccccc43)ccc21 . Could you help?
OUT: > 20 µg/mL

Moving on to another compound below.
IN: Hello, I am looking for reported IC50 with KB (human mouth epidermoid carcinoma) for CCCCCCCCCCCCCCCCCCCCn1c2ccccc2c2cc(C3=NCCc4c3[nH]c3ccccc43)ccc21 . Could you help?
OUT: > 20 µg/mL

---

System: NCI-H661 (human lung large cell carcinoma)
PROTOCOL_DETAILS: Cytotoxicity assay, NCI-H661 cells
Assay type: cell-based
EXPERIMENTAL_SETUP: 72 h, 3 days incubation, by interpolation
Method: The cytotoxic activities of compounds against KB (human mouth epidermoid carcinoma), DLD (human colon adenocarcinoma), NCI-H661 (human lung large cell carcinoma), Hepa (human hepatoma), and HepG2/A2 (human hepatoblastoma) cells were assayed by the MTT{3-(4,5-dimethylthiazole-2-yl)-2,5-diphenyltetrazolium bromide} colorimetric assay as previously described. The cells for assay were cultured in RPMI-1640 medium supplemented with […] in an incubator at 37 °C. […]
METRIC_NAME: IC50

Consider the reported IC50 for these compounds:
IN: Request the reported IC50 associated with CCCCCCCCCCCCCCCCCCCCn1c2ccccc2c2cc(C3=NCCc4c3[nH]c3ccccc43)ccc21
OUT: > 20 µg/mL

IN: Request the reported IC50 associated with CCCCCCCCCCCCCCCCCCCCn1c2ccccc2c2cc(C3NCCc4c3[nH]c3ccccc43)ccc21 (stereo not drawn)
OUT: > 20 µg/mL

New cases:
IN: Request the reported IC50 associated with CCn1c2ccccc2c2cc(C3NCCc4c3[nH]c3ccccc43)ccc21 (stereo not drawn)
OUT: 1.82 µg/mL

---

Test system: KB (human mouth epidermoid carcinoma)
PROTOCOL_DETAILS: Cytotoxicity assay, KB cells
Type: cell-based
EXPERIMENTAL_SETUP: 72 h, 3 days incubation, by interpolation
Entries annotated with measured IC50
All answers are understood in µg/mL, so give the number only.

IN: Request the reported IC50 associated with CCCCCCCCCCn1c2ccccc2c2cc(C3NCCc4c3[nH]c3ccccc43)ccc21 (centres unmarked)
OUT: 6.36

IN: Request the reported IC50 associated with CCCCCCCCn1c2ccccc2c2cc(C3=NCCc4c3[nH]c3ccccc43)ccc21
OUT: 9.13

Moving on to another molecule below.
IN: Request the reported IC50 associated with CCCn1c2ccccc2c2cc(C3=NCCc4c3[nH]c3ccccc43)ccc21
OUT: 2.72
